Biological target: Aurora kinase A (Homo sapiens) (UniProt O14965)
Sequence (O14965 whole entry): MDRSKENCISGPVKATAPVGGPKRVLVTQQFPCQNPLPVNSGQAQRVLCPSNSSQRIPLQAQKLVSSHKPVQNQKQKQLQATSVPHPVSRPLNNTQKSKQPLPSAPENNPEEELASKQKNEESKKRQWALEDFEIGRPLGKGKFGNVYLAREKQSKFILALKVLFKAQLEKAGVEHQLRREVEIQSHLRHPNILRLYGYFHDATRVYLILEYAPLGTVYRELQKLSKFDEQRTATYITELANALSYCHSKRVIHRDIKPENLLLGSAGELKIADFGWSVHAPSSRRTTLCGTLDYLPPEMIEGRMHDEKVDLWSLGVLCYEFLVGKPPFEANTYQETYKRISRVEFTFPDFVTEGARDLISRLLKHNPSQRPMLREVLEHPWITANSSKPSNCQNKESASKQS
Assay: Inhibition of human recombinant aurora-2 kinase expressed in Sf9 cells at 20 uM using kemptide as substrate by kinase-Glo luciferase assay
Active and inactive are the calls of the source. No cut-off for these calls is given here.
measurement name: inhibition

O=S(=O)(Nc1ncccn1)c1ccc(Nc2ncnc3c2oc2ccccc23)cc1
Active
COc1cc2ncnc(Nc3cccc(Br)c3)c2cc1OC
Active
COc1cc2ncnc(N3CCN(C(=S)Nc4ccc(S(=O)(=O)Nc5ncccn5)cc4)CC3)c2cc1OC
Active
O=S(=O)(Nc1ncccn1)c1ccc(Nc2ncnc3c2sc2ncccc23)cc1
Active
